Test system: EGFR Del19/T790M/C797S (BaF3-DTC cells)
Test: EGFR degradation HTRF assay, BaF3-DTC cells
Type: cell-based
Conditions: 16h treatment, maximum percentage of degradation
measured-parameter: DTC Dmax (%)
# value in %; strip the unit string

1) COc1cc(N2CCC(N3CC4CC(C3)N4CCC3CCN(c4cc(F)c(C5CCC(=O)NC5=O)c(F)c4)CC3)CC2)c(C)cc1Nc1ncc(Br)c(Nc2ccc3nccnc3c2P(C)(C)=O)n1 (stereo not shown) [Example 266] ... 83.88
2) CCc1cc(Nc2ncc(Br)c(Nc3ccc4nccnc4c3P(C)(C)=O)n2)c(OC)cc1N1CCC(N2CCN(C3CC4(CCN(c5ccc(C6CCC(=O)NC6=O)cc5)CC4)C3)CC2)CC1 (stereo not shown) [Example 311] ... 77.19
3) CCc1cc(Nc2ncc(Br)c(Nc3ccc4nccnc4c3P(C)(C)=O)n2)c(OC)cc1N1CCC(N2CCN(CC3CCN(c4ccc5c(c4)C(=O)N(C4CCC(=O)NC4=O)C5=O)CC3)CC2)CC1 (stereo not shown) [Example 272] ... 91.58
4) CCc1cc(Nc2ncc(Br)c(Nc3ccc4nccnc4c3P(C)(C)=O)n2)c(OC)cc1N1CCC(N2CCN(C(=O)CC3CCN(c4cc(F)c(C5CCC(=O)NC5=O)c(F)c4)CC3)CC2)CC1 (stereo not shown) [Example 274] ... 89.85
5) CCc1cc(Nc2ncc(Br)c(Nc3ccc4nccnc4c3P(C)(C)=O)n2)c(OC)cc1N1CCC(N2CCN(C(=O)[C@@H]3CCN(c4ccc5c(c4)C(=O)N(C4CCC(=O)NC4=O)C5=O)C3)CC2)CC1 (stereo partly shown) [Example 65] ... 80.45

Prompt: For the compound shown here, CCc1cc(Nc2ncc(Br)c(Nc3ccc4nc(C)ccc4c3P(C)(C)=O)n2)c(OC)cc1N1CCC(N2CCN(CCC3CCN(c4ccc5nn(C6CCC(=O)NC6=O)cc5c4)CC3)CC2)CC1 (stereo not shown) [Example 719] , give the reported DTC Dmax (%).
Response: 84.38

Prompt: For the compound shown here, CCc1cc(Nc2ncc(Br)c(Nc3ccc4nccnc4c3P(C)(C)=O)n2)c(OC)cc1N1CCC(N2CCN(CCc3cc(Cl)c(C4CCC(=O)NC4=O)cc3F)CC2)CC1 (stereo not shown) [Example 166] , give the reported DTC Dmax (%).
Response: 85.99

Prompt: For the compound shown here, CCc1cc(Nc2ncc(Br)c(Nc3ccc4nc(C(C)C)ccc4c3P(C)(C)=O)n2)c(OC)cc1N1CCC(N2CCN(CCC3CCN(c4cc(F)c(C5CCC(=O)NC5=O)c(F)c4)CC3)CC2)CC1 (stereo not shown) [Example 313] , give the reported DTC Dmax (%).
Response: 90.8

Prompt: For the compound shown here, COc1cc(N2CCC(N3CCN(C(=O)CCN4CCC(c5ccc(C6CCC(=O)NC6=O)cc5)CC4)CC3)CC2)ccc1Nc1ncc(Cl)c(Nc2ccccc2N(C)S(C)(=O)=O)n1 (stereo not shown) [Example 123] , give the reported DTC Dmax (%).
Response: 83.94

Prompt: For the compound shown here, CCc1cc(Nc2ncc(Br)c(Nc3ccc4nccnc4c3P(C)(C)=O)n2)c(OC)cc1N1CCC(N2CCN(C3CCN(c4ccc(C5CCC(=O)NC5=O)cc4)C3)CC2)CC1 (stereo not shown) [Example 281] , give the reported DTC Dmax (%).
Response: 67.1

====

Target: EGFR L858R/T790M/C797S (BaF3-LTC cells) (Homo sapiens, UniProt P00533, C797S/L858R/T790M)
Construct: expressed in transfected cells; host or cells: BaF3
Sequence (P00533 25-1210 T790M/C797S/L858R): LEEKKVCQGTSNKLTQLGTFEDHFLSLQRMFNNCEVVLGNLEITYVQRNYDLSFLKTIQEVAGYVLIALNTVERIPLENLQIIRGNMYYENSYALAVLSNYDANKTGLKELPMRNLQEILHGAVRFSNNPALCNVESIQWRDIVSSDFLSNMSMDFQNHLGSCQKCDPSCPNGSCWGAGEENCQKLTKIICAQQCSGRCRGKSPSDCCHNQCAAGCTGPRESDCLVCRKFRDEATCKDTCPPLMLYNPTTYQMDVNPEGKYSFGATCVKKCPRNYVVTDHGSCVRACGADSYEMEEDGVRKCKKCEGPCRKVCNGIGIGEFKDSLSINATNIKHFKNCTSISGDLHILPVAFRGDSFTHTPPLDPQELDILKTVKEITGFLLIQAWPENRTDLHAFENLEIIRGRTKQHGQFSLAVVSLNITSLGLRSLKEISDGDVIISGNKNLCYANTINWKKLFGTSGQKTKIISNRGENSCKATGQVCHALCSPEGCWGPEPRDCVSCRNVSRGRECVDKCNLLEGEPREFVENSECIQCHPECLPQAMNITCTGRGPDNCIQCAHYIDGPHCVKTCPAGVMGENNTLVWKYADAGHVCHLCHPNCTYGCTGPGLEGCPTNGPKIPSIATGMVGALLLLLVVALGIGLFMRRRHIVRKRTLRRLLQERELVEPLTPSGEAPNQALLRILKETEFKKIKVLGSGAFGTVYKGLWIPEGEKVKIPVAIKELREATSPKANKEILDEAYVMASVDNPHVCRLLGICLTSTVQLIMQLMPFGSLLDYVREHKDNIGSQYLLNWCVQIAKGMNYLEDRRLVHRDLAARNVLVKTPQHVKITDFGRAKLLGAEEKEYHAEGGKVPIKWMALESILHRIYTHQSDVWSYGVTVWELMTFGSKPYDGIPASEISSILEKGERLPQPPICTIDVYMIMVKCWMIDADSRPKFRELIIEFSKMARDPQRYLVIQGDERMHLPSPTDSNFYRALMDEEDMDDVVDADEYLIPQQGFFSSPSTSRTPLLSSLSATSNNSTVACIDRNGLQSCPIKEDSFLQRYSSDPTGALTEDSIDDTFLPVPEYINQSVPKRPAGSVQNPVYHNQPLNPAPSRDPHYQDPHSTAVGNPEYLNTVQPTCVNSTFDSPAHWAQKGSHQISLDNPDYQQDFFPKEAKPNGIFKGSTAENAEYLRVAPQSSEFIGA
Assay: EGFR degradation HTRF assay, BaF3-LTC cells
Type: cell-based
Settings: BaF3-LTC, 16h treatment, maximum percentage of degradation; read-out: LTC Dmax (%)
measured-parameter: Dmax (%)
# value in %; strip the unit string

Prompt: For the compound shown here, CCc1cc(Nc2ncc(Br)c(Nc3ccc4nccnc4c3P(C)(C)=O)n2)c(OC)cc1N1CCC(N2CCN(CC3CCN(c4ccc5c(c4)C(=O)N(C4CCC(=O)NC4=O)C5=O)CC3)CC2)CC1 (stereo not shown) , give the reported Dmax.
Response: 90.9

Prompt: For the compound shown here, COc1cc(N2CCC(N3C[C@H]4C[C@@H]3CN4CCC3CCN(c4cc(F)c(C5CCC(=O)NC5=O)c(F)c4)CC3)CC2)c(C)cc1Nc1ncc(Br)c(Nc2ccc3nccnc3c2P(C)(C)=O)n1 (stereo partly shown) , give the reported Dmax.
Response: 90.3

Prompt: For the compound shown here, CCc1cc(Nc2ncc(Br)c(Nc3ccc4nc(C(F)(F)F)ccc4c3P(C)(C)=O)n2)c(OC)cc1N1CCC(N2CCN(C(=O)C3CN(c4ccc5c(c4)CN(C4CCC(=O)NC4=O)C5=O)C3)CC2)CC1 (stereo not shown) , give the reported Dmax.
Response: 88.2

====

Target: EGFR L858R/T790M/C797S (BaF3-LTC cells) (Homo sapiens, UniProt P00533, C797S/L858R/T790M)
Construct: expressed in transfected cells; host or cells: BaF3
Test: EGFR degradation HTRF assay, BaF3-LTC cells
Assay type: cell-based
Details: BaF3-LTC, 16h treatment; read-out: LTC DC50
Under this convention, criterion met denotes DC50 strictly below 10 nM and criterion not met denotes DC50 at or above 10 nM.

Observe how each entry below is paired with its result.
1) CCc1cc(Nc2ncc(Br)c(Nc3ccc4nccnc4c3P(C)(C)=O)n2)c(OC)cc1N1CCC(N2CCN(C(=O)[C@H]3CCN(c4ccc5c(c4)C(=O)N(C4CCC(=O)NC4=O)C5=O)C3)CC2)CC1 (some centres unmarked) [Example 66] ... criterion not met
2) CCc1cc(Nc2ncc(Br)c(Nc3ccc4nccnc4c3P(C)(C)=O)n2)c(OC)cc1N1CCC(N2CCN(C(=O)C3CN(c4cccc(C5CCC(=O)NC5=O)c4)C3)CC2)CC1 (centres unmarked) [Example 230] ... criterion not met
3) CCc1cc(Nc2ncc(Br)c(Nc3ccc4nccnc4c3P(C)(C)=O)n2)c(OC)cc1N1CCC(N2CCN(C3CN(c4cc(F)c(C5CCC(=O)NC5=O)c(F)c4)C3)CC2)CC1 (centres unmarked) [Example 302] ... criterion not met
4) COc1cc(N2CCC(N3CCN(CCC4CCN(c5cc(F)c(C6CCC(=O)NC6=O)c(F)c5)CC4)CC3)CC2)ccc1Nc1ncc(Br)c(Nc2ccc3nc(C)ccc3c2P(C)(C)=O)n1 (centres unmarked) [Example 218] ... criterion met

Let's switch to this compound now.
Prompt: DC50 under 10 nM? Item: COc1cc(N2CCN(C3CN(C(=O)c4cnc(C(=O)Nc5ccc(C6CCC(=O)NC6=O)cc5)cn4)C3)CC2)c(C)cc1Nc1ncc(Br)c(Nc2ccc3nccnc3c2P(C)(C)=O)n1 (centres unmarked) [Example 723]
Response: criterion not met

====

Test system: EGFR Del19/T790M/C797S (H1975-clone #28)
Assay: EGFR degradation HTRF assay, H1975-clone #28 DTC cells
Type: cell-based
Details: H1975 # 28 DTC cells; maximum percentage of inhibition (degradation)
measured-parameter: Dmax (%) H1975 # 28 DTC
# value in %; strip the unit string

Record excerpt, results attached:
1) CCOc1cc(N2CCC(N3CCN(CC4CN(c5cc(F)c([C@H]6CCC(=O)NC6=O)c(F)c5)C4)CC3)CC2)c(CC)cc1Nc1ncc(Br)c(Nc2ccc3nc(CC)ccc3c2P(C)(C)=O)n1 ... 88.77
2) CCOc1cc(N2CCC(N3CCN(CCc4c(F)cc5c(oc(=O)n5C5CCC(=O)NC5=O)c4F)CC3)CC2)c(CC)cc1Nc1ncc(Br)c(Nc2ccc3nc(CC)ccc3c2P(C)(C)=O)n1 (stereo not shown) ... 77.57

Prompt: For the molecule shown here, CCOc1cc(N2CCC(N3CCN(CCc4cc(OC)cc5c4oc(=O)n5C4CCC(=O)NC4=O)CC3)CC2)c(CC)cc1Nc1ncc(Br)c(Nc2ccc3nc(CC)ccc3c2P(C)(C)=O)n1 (stereo not shown) , give the reported Dmax (%) H1975 # 28 DTC.
Response: 74.88

Prompt: For the molecule shown here, CCc1ccc2c(P(C)(C)=O)c(Nc3nc(Nc4cc(CC)c(N5CCC(N6CCN(C(=O)C7CN(c8cc(F)cc9c8oc(=O)n9C8CCC(=O)NC8=O)C7)CC6)CC5)cc4OC)ncc3Br)ccc2n1 (stereo not shown) , give the reported Dmax (%) H1975 # 28 DTC.
Response: 77.96

Prompt: For the molecule shown here, `CCOc1cc(N2CCC(N3CCN(C(=O)[C@@H]4CCN(c5cc(F)c([C@H]6CCC(=O)NC6=O)c(F)c5)C4)CC3)CC2)c(CC)cc1Nc1ncc(Br)c(Nc2cc(F)c3ncccc3c2P(C)(C)=O)n1` , give the reported Dmax (%) H1975 # 28 DTC.
Response: 81.53

Prompt: For the molecule shown here, CCOc1cc(N2CCC(N3CCN(CCc4cc5oc(=O)n(C6CCC(=O)NC6=O)c5cc4F)CC3)CC2)c(CC)cc1Nc1ncc(Br)c(Nc2ccc3nc(CC)ncc3c2P(C)(C)=O)n1 (stereo not shown) [Example 565] , give the reported Dmax (%) H1975 # 28 DTC.
Response: 74.32

Prompt: For the molecule shown here, CCc1cnc2c(P(C)(C)=O)c(Nc3nc(Nc4cc(CC)c(N5CCC(N6CCN(CCc7ccc8c(c7)oc(=O)n8C7CCC(=O)NC7=O)CC6)CC5)cc4OC)ncc3Br)ccc2n1 (stereo not shown) , give the reported Dmax (%) H1975 # 28 DTC.
Response: 74.38

Prompt: For the molecule shown here, CCc1cc(Nc2ncc(Br)c(Nc3ccc4c(=O)n(C)ncc4c3P(C)(C)=O)n2)c(OC)cc1N1CCC(N2CCN(C(=O)C3CN(c4cc(F)c(C5CCC(=O)NC5=O)c(F)c4)C3)CC2)CC1 (stereo not shown) , give the reported Dmax (%) H1975 # 28 DTC.
Response: 73.99

Prompt: For the molecule shown here, CCc1ccc2c(P(C)(C)=O)c(Nc3nc(Nc4cc(CC)c(N5CCC(N6CCN(C(=O)Cc7ccc8c(c7)oc(=O)n8C7CCC(=O)NC7=O)CC6)CC5)cc4OC)ncc3Br)ccc2n1 (stereo not shown) , give the reported Dmax (%) H1975 # 28 DTC.
Response: 73.26

Prompt: For the molecule shown here, `COc1cc(N2CCC(N3CCN(C(=O)[C@H]4CN(c5cc(F)c([C@H]6CCC(=O)NC6=O)c(F)c5)CC4(C)C)CC3)CC2)c(C)cc1Nc1ncc(Br)c(Nc2ccc3nc(C)c(F)cc3c2P(C)(C)=O)n1` , give the reported Dmax (%) H1975 # 28 DTC.
Response: 88.94
